Reference for the values: patent US20070149508A1

SYSTEM UNDER TEST: Abl (T315I) (Homo sapiens, UniProt P00519, T315I)
Construct: purchased Upstate
ASSAY: Abl (T315I) Kinase Assay (KinaseGlo luminescent detection of residual ATP)
Type: biochemical
STUDY CONDITIONS: Abl (T315I) IC50 (nM), Abl (T315I) (Upstate, 17 ng/well), Abltide 100 uM, ATP 500 nM, 60 minutes at 37° C.
Counter-ions that a name gives are not always drawn.
Reported values of IC50 for individual entries
Give just the numeric value; nM need not be written.

COc1cccc(/C=C/c2cnc(Nc3ccc(S(=O)(=O)C4CCNCC4)cc3)nc2)c1 | 664
O=S(=O)(c1ccc(Nc2ncc(/C=C/c3ccc(F)c4[nH]ccc34)cn2)cc1)C1CCNCC1 [Hydrochloride] | 149
O=S(=O)(c1ccc(Nc2ncc(/C=C/c3cccc4[nH]ccc34)cn2)cc1)N(CCO)C1CCNCC1 | 728
O=S(=O)(c1ccc(Nc2ncc(/C=C/c3cccc4[nH]ccc34)cn2)cc1)C1CCNCC1 | 154
CN1CCC(S(=O)(=O)c2ccc(Nc3ncc(/C=C/c4cccc5[nH]ncc45)cn3)cc2)CC1 | 2040
Nc1nc2ccc(/C=C/c3cnc(Nc4ccc(S(=O)(=O)NC5CCNCC5)cc4)nc3)cc2s1 | 29
Nc1nc2ccc(/C=C/c3cnc(Nc4ccc(S(=O)(=O)N5CCCNCC5)cc4F)nc3)cc2s1 [hydrochloride] | 6980

Return reported IC50; argument: "Nc1nc2ccc(/C=C/c3cnc(Nc4ccc(S(=O)(=O)CC5CCNCC5)cc4)nc3)cc2s1"
76
